system: ICR mice; test: Acute toxicity test (LD50), Litchfield-Wilcoxon method; format: in vivo, mouse; set-up: unit not given here; conditions: i.p.; male ICR mice, 14 days
Counter-ions that a name gives are not always drawn.
Endpoint Label: LD50
Number only, please.

Query string: Param readout= LD50; system= ICR mice; entry= CCc1cc(NC(=O)N2CCN(c3ccccc3OC)CC2)c(OC)nc1C [Example 148, hydrochloride] ; returns value.
Result string: 425.3

Query string: // repeat for CCc1cc(NC(=O)N2CCN(c3cc(OC)cc(OC)c3)CC2)c(OC)nc1C [Example 6] and report
Result string: 248.5

Query string: // repeat for CCc1cc(NC(=O)N2CCN(c3cccc(Cl)c3)CC2)c(OC)nc1C [Example 149, hydrochloride] and report
Result string: 410.5

Query string: // repeat for COc1cc(OC)cc(N2CCN(C(=O)Nc3cc(C)c(C)nc3OC)CC2)c1 [Example 118] and report
Result string: 182.8

----------
I'd be grateful if you could share measured LD50 for these entries.
test system: ICR mice; assay: Acute toxicity test (LD50), Litchfield-Wilcoxon method; format: in vivo, mouse; set-up: unit not given here; conditions: i.p.; male ICR mice, 14 days

Query string: Could you tell me which LD50 is on file for CCc1cc(NC(=O)N2CCN(c3cccc(C)c3C)CC2)c(OC)nc1C ?
Result string: > 1,800

Query string: // repeat for COc1ccccc1N1CCN(C(=O)Nc2cc(C)c(C)nc2OC)CC1 and report
Result string: > 2,000

Query string: // repeat for CCc1cc(CNC(=O)N2CCN(c3ccccc3F)CC2)c(OC)nc1C and report
Result string: > 1,687

Query string: // repeat for CCc1cc(NC(=S)N2CCN(c3cccc(Cl)c3)CC2)c(OC)nc1C and report
Result string: > 1,800

Query string: // repeat for CCc1cc(NC(=S)N2CCN(c3ccccc3OC)CC2)c(OC)nc1C and report
Result string: 1,100

Query string: // repeat for COc1nc(C)c(C)cc1NC(=O)N1CCN(c2cccc(Cl)c2)CC1 and report
Result string: 2,000
